# IC50 per record follows
# TESTED ON: NUAK2 (h) (Homo sapiens, UniProt Q9H093)
# Construct: This assay was done radiometrically using full-length, recombinant enzyme
# ASSAY SUMMARY: NUAK2 enzymatic assay (radiometric, Eurofins)
# TEST CONTEXT: full-length recombinant enzyme

Here's what some known entries look like.
- O=C1NCc2cccc(Nc3nc(Nc4ccc(N5CCCNCC5)cc4OC(F)F)ncc3Cl)c21: 0.1 to 10 nM
- COc1cc2c(cc1Nc1ncc(Cl)c(Nc3cccc4c3C(=O)NC4)n1)CCNCC2: 11 to 100 nM
- COc1c(Nc2ncc(Cl)c(Nc3cccc4c3C(=O)NC4)n2)ccc(N2CCC(N3CCN(C)CC3)CC2)c1F: 11 to 100 nM
- COc1nc(N2CCN(C)CC2)ccc1Nc1ncc(C(F)(F)F)c(Nc2cccc3c2C(=O)NC3)n1: 0.1 to 10 nM
- COc1c(Nc2ncc(C(F)(F)F)c(Nc3cccc4c3C(=O)NC4)n2)ccc(N2CCC(N3CCNCC3)CC2)c1F: 11 to 100 nM
- C[C@@H]1CN(c2ccc(Nc3ncc(C(F)(F)F)c(Nc4cccc5c4C(=O)NC5)n3)c(OC(F)F)c2)C[C@H](C)N1: 0.1 to 10 nM

The reported value for O=C1NCc2cccc(Nc3nc(Nc4ccc(N5CCC6(CCNCC6)CC5)cc4OC(F)F)ncc3C(F)(F)F)c21 in terms of IC50 is 11 to 100 nM

The reported value for O=C1NCc2cccc(Nc3nc(Nc4ccc(N5C[C@H]6C[C@@H]5CN6)cc4OC(F)F)ncc3C(F)(F)F)c21 in terms of IC50 is 0.1 to 10 nM

The reported value for CN1CCN(c2ccc(Nc3ncc(Cl)c(Nc4cccc5c4C(=O)NC5)n3)c(C(F)(F)F)c2)CC1 in terms of IC50 is 11 to 100 nM

The reported value for CCN1CCN(c2ccc(Nc3nccc(Nc4cccc5c4C(=O)NC5)n3)cc2F)CC1 in terms of IC50 is 11 to 100 nM

The reported value for COc1c(Nc2ncc(C(F)(F)F)c(Nc3cccc4c3C(=O)NC4)n2)ccc(N2CCCN(C)CC2)c1F in terms of IC50 is 0.1 to 10 nM

====

Recorded below: pIC50, system NUAK1 (Homo sapiens).
pIC50: −log10 of the molar value.

Here's what some known entries look like.
* COc1cc2c(cc1Nc1ncc(Cl)c(Nc3cccc4c3C(=O)NC4)n1)CN(C)CC2(C)C [Compound I-16] | 7.00 to 7.96
* COc1cc2c(cc1Nc1ncc(Cl)c(Nc3cccc4c3C(=O)NC4)n1)CNCC21CC1 [Compound I-25] | 7.00 to 7.96
* CN1CCN(c2ccc(Nc3ncc(C(F)(F)F)c(Nc4cccc5c4C(=O)NC5)n3)c(OC(F)F)c2)CC1 [Compound I-79] | 7.00 to 7.96

Switching to the query record.
The reported value for COc1cc2c(cc1Nc1ncc(F)c(Nc3cccc4c3C(=O)NC4)n1)CCNC2 [Compound I-43] in terms of pIC50 is 6.00 to 7.00

====

# TESTED ON: NUAK2 (h) (Homo sapiens)
# Construct: This assay was done radiometrically using full-length, recombinant enzyme
# Sequence (Q9H093 1-628): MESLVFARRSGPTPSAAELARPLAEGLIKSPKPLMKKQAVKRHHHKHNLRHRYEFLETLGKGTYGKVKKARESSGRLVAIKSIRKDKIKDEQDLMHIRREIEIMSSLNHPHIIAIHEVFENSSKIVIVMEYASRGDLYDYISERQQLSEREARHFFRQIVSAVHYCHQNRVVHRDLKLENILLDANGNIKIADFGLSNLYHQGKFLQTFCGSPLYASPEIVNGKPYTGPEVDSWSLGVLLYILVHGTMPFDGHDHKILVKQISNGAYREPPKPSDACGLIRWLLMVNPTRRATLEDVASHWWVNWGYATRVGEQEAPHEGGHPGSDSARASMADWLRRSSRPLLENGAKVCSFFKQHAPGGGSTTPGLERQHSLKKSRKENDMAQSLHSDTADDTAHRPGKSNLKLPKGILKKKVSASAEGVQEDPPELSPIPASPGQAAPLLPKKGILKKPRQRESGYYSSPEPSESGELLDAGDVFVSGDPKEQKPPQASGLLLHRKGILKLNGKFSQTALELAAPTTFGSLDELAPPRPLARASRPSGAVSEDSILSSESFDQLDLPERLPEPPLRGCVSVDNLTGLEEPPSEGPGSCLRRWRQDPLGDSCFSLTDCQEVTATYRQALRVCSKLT
# ASSAY SUMMARY: NUAK2 enzymatic assay (radiometric, Eurofins)
# TEST CONTEXT: full-length recombinant enzyme
pIC50: −log10 of the molar value.
# pIC50 per record follows

• O=C1NCc2cccc(Nc3nc(Nc4ccc(N5CCNCC5)cc4OC(F)F)ncc3C(F)(F)F)c21 [Compound I-34] = 7.00 to 7.96
• CN1CCN(c2ccc(Nc3ncc(C(F)(F)F)c(Nc4cccc5c4C(=O)NC5)n3)c(OC(F)F)c2)CC1 [Compound I-79] = 8.00 to 10.00
• CN1CCCN(C2CCN(c3ccc(Nc4ncc(C(F)(F)F)c(Nc5cccc6c5C(=O)NC6)n4)c(OC(F)F)c3)CC2)CC1 [Compound I-69] = 8.00 to 10.00
• COc1cc2c(cc1Nc1ncc(Cl)c(Nc3cccc4c3C(=O)NC4)n1)CCN(C)C2 [Compound I-12] = 8.00 to 10.00
• O=C1NCc2cccc(Nc3nc(Nc4ccc(N5CCC6(CCNCC6)CC5)cc4OC(F)F)ncc3Cl)c21 [Compound I-77] = 7.00 to 7.96

The reported value for CC1(C)CN(c2ccc(Nc3ncc(C(F)(F)F)c(Nc4cccc5c4C(=O)NC5)n3)c(OC(F)F)c2)CCN1 [Compound I-65] in terms of pIC50 is 8.00 to 10.00

The reported value for O=C1NCc2cccc(Nc3nc(Nc4ccc(N5[C@@H]6CC[C@H]5CNC6)cc4OC(F)F)ncc3C(F)(F)F)c21 [Compound I-70] in terms of pIC50 is 8.00 to 10.00

The reported value for CC(C)N1CCN(C2CCN(c3ccc(Nc4ncc(C(F)(F)F)c(Nc5cccc6c5C(=O)NC6)n4)c(OC(F)F)c3)CC2)CC1 [Compound I-32] in terms of pIC50 is 7.00 to 7.96

The reported value for COc1cc2c(cc1Nc1ncc(C(F)(F)F)c(Nc3cccc4c3C(=O)NC4)n1)CCN(C)C2 [Compound I-22] in terms of pIC50 is 8.00 to 10.00

The reported value for COc1nc(N2CCN(C)CC2)ccc1Nc1ncc(Cl)c(Nc2cccc3c2C(=O)NC3)n1 [Compound I-14] in terms of pIC50 is 7.00 to 7.96

The reported value for O=C1NCc2cccc(Nc3nc(Nc4ccc(N5CCNCC5)cc4OC(F)F)ncc3Cl)c21 [Compound I-24] in terms of pIC50 is 8.00 to 10.00

The reported value for CN1CCc2ccc(Nc3ncc(Cl)c(Nc4cccc5c4C(=O)NC5)n3)cc2C1 [Compound I-10] in terms of pIC50 is 8.00 to 10.00

The reported value for COc1nc(N2CCC(N3CCN(C)CC3)CC2)ccc1Nc1ncc(Cl)c(Nc2cccc3c2C(=O)NC3)n1 [Compound I-13] in terms of pIC50 is 8.00 to 10.00

The reported value for COc1cc2c(cc1Nc1ncc(Cl)c(Nc3cccc4c3C(=O)NC4)n1)CN(C)CC2 [Compound I-3] in terms of pIC50 is 7.00 to 7.96

The reported value for O=C1NCc2cccc(Nc3nc(Nc4ccc(N5CCNCC5)cc4OC(F)F)ncc3F)c21 [Compound I-42] in terms of pIC50 is 7.00 to 7.96
